target: human kappa opioid receptors (Homo sapiens, UniProt P41145); construct: expressed in transfected cells; host or cells: U2OS; experiment: [35S]GTPγS stimulation, membranes from U2OS cells; type: biochemical
Sequence (P41145 whole entry): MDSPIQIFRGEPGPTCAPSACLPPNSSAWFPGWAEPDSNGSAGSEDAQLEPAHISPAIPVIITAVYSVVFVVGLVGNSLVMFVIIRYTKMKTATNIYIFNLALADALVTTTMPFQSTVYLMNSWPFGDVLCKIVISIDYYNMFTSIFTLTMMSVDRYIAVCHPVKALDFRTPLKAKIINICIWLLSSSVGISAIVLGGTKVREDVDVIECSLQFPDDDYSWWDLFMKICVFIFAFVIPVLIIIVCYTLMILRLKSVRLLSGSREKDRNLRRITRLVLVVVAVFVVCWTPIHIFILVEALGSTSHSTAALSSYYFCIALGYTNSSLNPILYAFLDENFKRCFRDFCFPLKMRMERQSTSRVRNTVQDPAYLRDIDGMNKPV
So I've got a bunch of compounds here, and I need their pEC50 values.
In textbook form, pEC50 equals minus log to base ten of the concentration in mol/L.

Summary: O=C(Cc1ccc(Cl)c(Cl)c1)N1CCN(S(=O)(=O)C2CC2)[C@H]2COC[C@@H](N3CCCC3)[C@@H]21 (single isomer, unassigned) [Example 5A52B] , human kappa opioid receptors (Homo sapiens, UniProt P41145), pEC50 = 7.74

Summary: O=C(Cc1ccc(F)c(Cl)c1)N1CCN[C@@H]2COC[C@H](N3CCCC3)[C@H]21 (racemic) , human kappa opioid receptors (Homo sapiens, UniProt P41145), pEC50 = 6.24

Summary: O=C(Cc1ccc(Cl)c(Cl)c1)N1CCN(Cc2ccccc2)[C@H]2COC[C@@H](N3CCCC3)[C@@H]21 (single isomer, unassigned) [Example 5A53B] , human kappa opioid receptors (Homo sapiens, UniProt P41145), pEC50 = 8.32

Summary: COC(=O)N1CCN(C(=O)Cc2ccc(Cl)c(Cl)c2)[C@H]2[C@H]1COC[C@@H]2N1CCCC1 (racemic) , human kappa opioid receptors (Homo sapiens, UniProt P41145), pEC50 = 7.92

Summary: CN(C)[C@H]1COC[C@H]2NCCN(C(=O)Cc3ccc(Cl)c(Cl)c3)[C@@H]21 (racemic) , human kappa opioid receptors (Homo sapiens, UniProt P41145), pEC50 = 6.97

Summary: Cc1ccc(CC(=O)N2CCN[C@@H]3COC[C@H](N4CCCC4)[C@H]32)cc1C (racemic) , human kappa opioid receptors (Homo sapiens, UniProt P41145), pEC50 = 5.77

====

target: human kappa opioid receptors (Homo sapiens); construct: expressed in transfected cells; host or cells: U2OS; experiment: [35S]GTPγS stimulation, membranes from U2OS cells; type: biochemical
measured_quantity: EC50 (nM)
API: value field is a number in nM; no unit string.

Record O=C(Cc1ccc(Cl)c(Cl)c1)N1CCN(CC2CCC2)[C@@H]2COC[C@H](N3CCCC3)[C@H]21 (racemic) [Example 5A55] . Reported EC50: 21

Record CS(=O)(=O)N1CCN(C(=O)Cc2ccc(Cl)c(Cl)c2)[C@H]2[C@H](N3CCCC3)COC[C@@H]21 (single isomer, unassigned) [Example 5A44B] . Reported EC50: 4.6

Record CCCN1CCN(C(=O)Cc2ccc(Cl)c(Cl)c2)[C@H]2[C@H]1COC[C@@H]2N1CCCC1 (racemic) . Reported EC50: 12

Record Cc1ccc(CC(=O)N2CCN[C@@H]3COC[C@H](N4CCCC4)[C@H]32)cc1C(F)(F)F (racemic) . Reported EC50: 9

Record O=C(Cc1ccc(Cl)c(Cl)c1)N1CCN(CC2CC2)[C@@H]2COC[C@H](N3CCCC3)[C@H]21 (racemic) . Reported EC50: 19

====

So I've got a bunch of compounds here, and I need their EC50 values.
target: UniProt:P41145; test: β-arrestin coupling (PathHunter Detection Kit)
API: value field is a number in µM; no unit string.

Record O=C(Cc1cccc(C(F)(F)F)c1)N1CCN[C@@H]2COC[C@H](N3CCCC3)[C@H]21 (racemic) . Reported EC50: 3.26

Record CN1CCN(C(=O)Cc2ccc(Cl)c(Cl)c2)[C@H]2[C@H]1COC[C@@H]2N1CCCC1 (racemic) . Reported EC50: 5.54

Record O=C(Cc1ccc(F)c(Cl)c1)N1CCN[C@@H]2COC[C@H](N3CCCC3)[C@H]21 (racemic) . Reported EC50: 13.6

Record O=C(Cc1ccc(Cl)c(Cl)c1)N1CCN[C@@H]2COC[C@H](N3CCCC3)[C@H]21 (racemic) . Reported EC50: 1.13
